Target: T1, human CD70, full length, on CHO cells (CHO-human CD70-B07) (human, UniProt P32970 1-193)
T1 construct: whole, on cells; Stably transfected CHO cells; also called CHO-CD70
T1 sequence (looked up): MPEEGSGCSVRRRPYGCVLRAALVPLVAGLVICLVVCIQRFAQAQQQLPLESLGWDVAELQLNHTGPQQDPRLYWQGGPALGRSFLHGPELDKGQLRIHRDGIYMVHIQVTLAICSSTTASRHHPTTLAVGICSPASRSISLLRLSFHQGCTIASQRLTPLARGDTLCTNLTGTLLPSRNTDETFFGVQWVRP
Test: flow cytometry, Fab on CHO-human CD70 cells
Met if EC50 is below 10 nM. Not met if not; exact matches included in Not met.

# strict comparison: is reported EC50 < 10 nM? input = 26G11 Fab antibody (Fab, V domains shown, Purified Fab from the mouse Fab phage display library) VH: QVQLQQSGPELVKPGASVKISCKTSGYTFADYTMHWVRQSQGKSLEWIGDIYPNDGGPNNNQKFKDKATLTVDKSSSTAYMELRSLTSEDSAVYYCARPFYYGNYAGFAFWGQGTLVTVSA VL: EMVLTQSPAIMSASPGEKVTMTCSASSSVSYMYWYQQKPGSSPRLLIYDTSNLASGVPVRFSGSGSGTSYSLTISRMEAEDAATYYCQQWSSYPLTFGAGTRLEIK Not met

# strict comparison: is reported EC50 < 10 nM? input = 39H5 Fab antibody (Fab, V domains shown, Purified Fab from the mouse Fab phage display library) VH: EIQLVQSGPELKKPGETVKISCKASGYTFTNYGMNWVKQAPGQGLKWMGWINTYTGEPTYADDFTGRFAFSLETSASTAYLQINNLKNEDMAAYFCAREEDYRYVFNYWGQGTTLTVSS VL: DIQMIQSTSSLSASLGNRVTISCRASQDISNYLNWYQQKPDGTVKLLIYDTSRLHAGVPSRFSGSGSGTDYSLTISNLEQEDIATYFCQQGVTLPLTFGAGTKLEIK Met

# strict comparison: is reported EC50 < 10 nM? input = 25H7 Fab antibody (Fab, V domains shown, Purified Fab from the mouse Fab phage display library) VH: EIQLVQSGPELKKPGETVKISCKASGYTFTNYGMNWVKQTPGKGLKWMGWINTDTGEPTYADDFKGRFAFSLETSASTAYLQINNLKNEDMATYFCAREEDYRYVFNYWGQGTTLTVSS VL: DIQMTQTTSSLSASLGDRVTISCRASQDISNYLNWYQQKPDGTVKLLIYYTSRLHSGVPSRFSGSGSGTDYSLTISNLEQEDIATYFCQQGVTLPLTFGAGTKLELK Not met

# strict comparison: is reported EC50 < 10 nM? input = 23A11 Fab antibody (Fab, V domains shown, Purified Fab from the mouse Fab phage display library) VH: QVQLQQSGPGLVQPSQSLSITCTVSGFSLTTYAVHWVRQSPGKGLEWLGVIWSVGSTDYNAAFISRLSISKDNSKSQVFFKMNSLQADDTAIYYCARNIYYGNVYAMDYWGQGTSVTVSS VL: DIVLTQSPASLAVSLGQRATISCRASKSVDASGYSFMHWYQQKAGQPPKLLIYLASNLESGVPARFSGRGSGTDFTLNIHPVEEGDAATYYCQHSRELPLTFGAGTKLEIK Not met

# strict comparison: is reported EC50 < 10 nM? input = 27A3 Fab antibody (Fab, V domains shown, Purified Fab from the mouse Fab phage display library) VH: EVQLQESGPGLVQPSQSLSITCTVSGFSLTTYAVHWVRQSPGKGLEWLGVIWSTGITDYNADFISRLSISKDNSKSQVFFKMDSLQSDDTAIYFCARNHYYGNLNAMDYWGQGTSVTVSS VL: DIVLTQSPASLAVSLGQRATISCRASKSVSTSGYSFMHWYQQKPGQPPKLLIYLASNLESGVPARFSGSGSGTDFTLNIHPVEEEDAATYYCQHSRELPYTFGGGTKLEIK Not met

# strict comparison: is reported EC50 < 10 nM? input = 3B2 Fab antibody (Fab, V domains shown, Purified Fab from the mouse Fab phage display library) VH: EVQLKQSGPGLVQPSQSLSITCTVSGFSLTTYGVHWVRQSPGKGLEWLGVIWSTGITDYNAAFISRLSISKDNSKSQVFFKMNSLQADDTAIYYCARNSYYGNLYVMDYWGQGTSVTVSS VL: DIVLTQSPASLAVSLGQRATISCRASKSVSASGYNFMHWYQQKPGQPPKLLIYLASNLESGVPARFSGSGSGTDFTLNIHPVEEEDAATYYCQHSRELPLTFGAGTKLELK Not met

# strict comparison: is reported EC50 < 10 nM? input = 2B12 Fab antibody (Fab, V domains shown, Purified Fab from the mouse Fab phage display library) VH: QVQLQQSGPGLVQPSQSLSITCTVSGFSLTTYAVHWVRQSPGKGLEWLGVIWSTGITDYNAAFISRLSISKDNSKSQVFFKMNSLQSDDIAIYYCARNPYYGNLNAMDYWGQGTSVTVSS VL: DIVLTQSPASLAVSLGQRATISCRASKSVDTSGYSFMHWYQQKPGQPPKLLIYLASNLESGVPARFSGSGSGTDFTLNIHPVEEEDAATYYCQHSRELPLTFGAGTKLELK Met
